Hey, just so you know, these numbers are from ChEMBL document CHEMBL1944574.

Target: UniProt:P27338
Assay: Inhibition of recombinant human monoamine oxidase B expressed in insect microsomes using kynuramine as substrate after 20 mins by fluorescence spectrophotometry
# IC50 annotations
Provide the measurement as a number trailed by its unit.

Worked examples, 3 compounds total:
Cc1ccc(COc2ccc3occc(=O)c3c2)cc1 :: 6 nM
O=c1ccoc2ccc(OCc3ccc(Br)cc3)cc12 :: 3.3 nM
O=c1ccoc2ccc(OCCc3ccccc3)cc12 :: 21 nM

Q: Fill in IC50 for record `N#Cc1cccc(COc2ccc3occc(=O)c3c2)c1`
Ans: 76 nM

Q: Fill in IC50 for record `O=c1ccoc2ccc(OCCc3ccc(Br)cc3)cc12`
Ans: 27 nM

Q: Fill in IC50 for record `O=c1ccoc2ccc(OCc3ccc(C(F)(F)F)cc3)cc12`
Ans: 2 nM

Q: Fill in IC50 for record `O=c1ccoc2ccc(OCCCc3ccccc3)cc12`
Ans: 57 nM

Q: Fill in IC50 for record `N#Cc1ccc(COc2ccc3occc(=O)c3c2)cc1`
Ans: 22 nM

Q: Fill in IC50 for record `O=c1ccoc2ccc(OCc3cccc(F)c3)cc12`
Ans: 13 nM

Q: Fill in IC50 for record `O=c1ccoc2ccc(OCc3cccc(Br)c3)cc12`
Ans: 2 nM

---

Species on record: Homo sapiens
Assay: Selectivity index, ratio of IC50 for recombinant human monoamine oxidase A to IC50 for recombinant human monoamine oxidase B
For each record, check the reported Ratio IC50: if it is below 200 write TRUE, else write FALSE.

Would you please look over these solved cases?
Cc1cccc(COc2ccc3occc(=O)c3c2)c1 :: TRUE
O=c1ccoc2ccc(OCc3ccc(C(F)(F)F)cc3)cc12 :: FALSE
O=c1ccoc2ccc(OCc3cccc(F)c3)cc12 :: TRUE

Q: Criterion: Ratio IC50 strictly below 200. Is it met by `N#Cc1cccc(COc2ccc3occc(=O)c3c2)c1` ?
Ans: TRUE

Q: Criterion: Ratio IC50 strictly below 200. Is it met by `O=c1ccoc2ccc(OCCCc3ccccc3)cc12` ?
Ans: TRUE

Q: Criterion: Ratio IC50 strictly below 200. Is it met by `O=c1ccoc2ccc(OCc3cccc(Br)c3)cc12` ?
Ans: TRUE

Q: Criterion: Ratio IC50 strictly below 200. Is it met by `Cc1ccc(COc2ccc3occc(=O)c3c2)cc1` ?
Ans: FALSE

---

Target: Amine oxidase [flavin-containing] A (Homo sapiens)
Assay: Inhibition of recombinant human monoamine oxidase A expressed in insect microsomes using kynuramine as substrate after 20 mins by fluorescence spectrophotometry
For each record, check the reported IC50: if it is below 3000 nM write T, else write F.

Would you please look over these solved cases?
O=c1ccoc2ccc(OCc3ccccc3)cc12 :: F
O=c1ccoc2ccc(OCc3ccc(Br)cc3)cc12 :: T
O=c1ccoc2ccc(OCc3ccc(C(F)(F)F)cc3)cc12 :: T
N#Cc1cccc(COc2ccc3occc(=O)c3c2)c1 :: T
O=c1ccoc2ccc(OCc3ccc(Cl)cc3)cc12 :: T
O=c1ccoc2ccc(OCCc3ccccc3)cc12 :: F

Attention now turns to another entry.
Q: Criterion: IC50 strictly below 3000 nM. Is it met by `Cc1ccc(COc2ccc3occc(=O)c3c2)cc1` ?
Ans: F

---

Biological target: Amine oxidase [flavin-containing] A (Homo sapiens, UniProt P21397)
Sequence (P21397 whole entry): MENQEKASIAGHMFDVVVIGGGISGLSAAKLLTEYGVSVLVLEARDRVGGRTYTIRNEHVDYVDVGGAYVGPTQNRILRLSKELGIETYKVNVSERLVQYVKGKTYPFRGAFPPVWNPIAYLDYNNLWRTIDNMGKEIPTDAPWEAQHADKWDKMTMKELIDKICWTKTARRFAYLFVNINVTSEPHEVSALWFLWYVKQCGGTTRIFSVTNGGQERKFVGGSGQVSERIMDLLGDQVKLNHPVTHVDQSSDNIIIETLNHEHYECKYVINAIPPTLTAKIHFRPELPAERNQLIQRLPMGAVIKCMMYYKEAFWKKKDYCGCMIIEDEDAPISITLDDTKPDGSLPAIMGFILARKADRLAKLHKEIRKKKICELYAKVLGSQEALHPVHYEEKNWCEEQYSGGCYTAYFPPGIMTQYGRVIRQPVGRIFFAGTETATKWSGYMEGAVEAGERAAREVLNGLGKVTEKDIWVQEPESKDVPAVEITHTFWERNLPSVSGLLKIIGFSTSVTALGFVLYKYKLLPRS
Assay: Inhibition of recombinant human monoamine oxidase A expressed in insect microsomes using kynuramine as substrate after 20 mins by fluorescence spectrophotometry
# pIC50 annotations
Just the number, please; pIC50 means minus log10 of the concentration in mol/L.

O=c1ccoc2ccc(OCc3ccc(F)cc3)cc12 :: 6.49
O=c1ccoc2ccc(OCCc3ccc(Br)cc3)cc12 :: 6.32

Q: Fill in pIC50 for record `N#Cc1ccc(COc2ccc3occc(=O)c3c2)cc1`
Ans: 6.76

Q: Fill in pIC50 for record `O=c1ccoc2ccc(OCc3cccc(Cl)c3)cc12`
Ans: 6.37

Q: Fill in pIC50 for record `O=c1ccoc2ccc(OCCCc3ccccc3)cc12`
Ans: 5.72

Q: Fill in pIC50 for record `O=c1ccoc2ccc(OCc3cccc(F)c3)cc12`
Ans: 5.91

Q: Fill in pIC50 for record `O=c1ccoc2ccc(OCc3cccc(Br)c3)cc12`
Ans: 6.41

Q: Fill in pIC50 for record `Cc1cccc(COc2ccc3occc(=O)c3c2)c1`
Ans: 5.95

---

Organism: Homo sapiens
Test: Selectivity index, ratio of IC50 for recombinant human monoamine oxidase A to IC50 for recombinant human monoamine oxidase B
quantity-kind: Ratio IC50
Could you respond with only the numeric value?

Worked examples, 5 compounds total:
O=c1ccoc2ccc(OCCc3ccccc3)cc12 :: 149
O=c1ccoc2ccc(OCc3cccc(Cl)c3)cc12 :: 118
O=c1ccoc2ccc(OCCc3ccc(Br)cc3)cc12 :: 18
O=c1ccoc2ccc(OCc3ccccc3)cc12 :: 62
N#Cc1ccc(COc2ccc3occc(=O)c3c2)cc1 :: 8

Now consider the entry below.
Q: Fill in Ratio IC50 for record `O=c1ccoc2ccc(OCc3ccc(Br)cc3)cc12`
Ans: 29

---

Target: Amine oxidase [flavin-containing] B (Homo sapiens, UniProt P27338)
Sequence (P27338 whole entry): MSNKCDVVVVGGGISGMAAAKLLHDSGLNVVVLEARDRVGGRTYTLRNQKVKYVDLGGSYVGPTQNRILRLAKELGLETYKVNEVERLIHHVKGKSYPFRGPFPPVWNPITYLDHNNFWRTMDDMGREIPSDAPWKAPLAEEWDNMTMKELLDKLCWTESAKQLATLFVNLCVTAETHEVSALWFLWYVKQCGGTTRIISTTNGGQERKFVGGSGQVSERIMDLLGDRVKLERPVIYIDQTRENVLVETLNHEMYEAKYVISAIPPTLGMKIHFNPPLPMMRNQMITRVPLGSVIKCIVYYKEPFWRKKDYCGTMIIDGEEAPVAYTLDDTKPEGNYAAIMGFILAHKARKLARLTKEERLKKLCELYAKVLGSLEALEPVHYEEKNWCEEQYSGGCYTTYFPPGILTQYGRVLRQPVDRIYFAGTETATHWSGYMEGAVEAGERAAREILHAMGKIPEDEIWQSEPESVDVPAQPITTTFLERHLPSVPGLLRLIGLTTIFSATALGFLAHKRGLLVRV
Experiment: Inhibition of recombinant human monoamine oxidase B expressed in insect microsomes using kynuramine as substrate after 20 mins by fluorescence spectrophotometry
# pIC50 annotations
Just the number, please; pIC50 means minus log10 of the concentration in mol/L.

O=c1ccoc2ccc(OCc3cccc(Cl)c3)cc12 :: 8.44
Cc1cccc(COc2ccc3occc(=O)c3c2)c1 :: 7.72

Q: Fill in pIC50 for record `O=c1ccoc2ccc(OCc3ccccc3)cc12`
Ans: 7.28
